median fluorescence fold over isotype control values, listed per item
- test-system: SARS-CoV-2 full length spike protein, wild type, expressed on the surface of CHO cells (SARS-CoV-2, UniProt P0DTC2 14-1273)
Just the number please, in fold over isotype, no unit attached.

Use these answered entries as a reference point.
[[record]]
binder = "antibody 514 (antibody, V domains shown) VH: EVQLVQSGAEVKKPGATVKISCKVSGYTFTDYYMHWVQQAPGKGLEWMGLVDPEDGETIYAEKFQGRVTITADTSTDTAYMELSSLRSEDTAVYYCATDCKYDILTGHYSAGYYYYGMDVWGQGTTVTVSS VL: DIQMTQSPSSLSASVGDRVTITCRASQGISNYLAWFQQKPGKAPKSLIYAASSLQSGVPSKFSGSGSGTDFTLTISSLQPEDFATYYCQQYNSYPFTFGGGTKVEIK"
units_of_measure = "fold over isotype"
reading = 1.04

[[record]]
binder = "antibody 497 (antibody, V domains shown) VH: QVQLQESGPGLVKPSQTLSLTCTVSGGSINSFGYYWSWIRQHPGKGLEWIGYIYYSGSTDYNPSLNSRVTISLDTSKNQFLLKLTSVTAADTAVYYCAKLTDYYDSSGYSFDYWGQGTLVTVSS VL: DIQMTQSPSSVSASVGDRVTITCRASQDISRWLAWYQQKPGKAPKLLIYAASSLQSGVPSRFSGRGSGTELTLTISSLQPEDFATYFCQQAYSFPFTFGGGTKVEIK"
units_of_measure = "fold over isotype"
reading = 28.3

[[record]]
binder = "antibody 522 (antibody, V domains shown) VH: EVQLVESGGGLVQPGGSLRLSCAASGFNFSSYSMNWVRQAPGKGLEWVSYISSSSSTIYYADSVKGRFTISRDNAKNSLYLQMNSLRDEDTAVYYCARGPEWDIVVVQAENWFDPWGQGTLVTVSS VL: SYELTQPPSVSVSPGQTARITCSGDALPKQYVYWYQQKPGQAPVLVIYKDSERPSGIPERFSGSSSGTTVTLTISGVQAEDEADYYCQSADSSGTYRGVFGGGTKLTVL"
units_of_measure = "fold over isotype"
reading = 9.18


Moving on to the next binder.
Reported median fluorescence fold over isotype control for antibody 523 (antibody, V domains shown) VH: EVQLVESGGVSVQPGGSLRLSCAASGFSFNTYDMHWVRQGTGKGLEWVSGIGTAGDTYYSDSVKGRCTISRDNAKNSLHLLVKSVRAADTAVYYCARGVGGIIDYWGQGTLVTVSS VL: NFVLSQPHSVSESPGKTVTISCTGNSGSIATKYVQWFQQRPGSAPTTVIYEDNQRPSGVPDRFSGSSDSSSNSASLTISGLKTEDEAHYYCQSYHNRRWVFGGGTKLTVL : what is it? 5.18
